# method: Reduction of COL1A1 mRNA expression in crohn's disease patient isolated ISEMF at 1 uM by RT-PCR analysis
# Format: functional
# condition.label: Homo sapiens
The source made the active and inactive calls. The rule behind the calls is not given here.
Outcome codes: 1.0 (active), 0.0 (inactive)

[
  {
    "compound": "COc1cc2ncn(CC(O)c3ccc(Br)cc3)c(=O)c2cc1OC (centres undefined)",
    "group": 1.0
  },
  {
    "compound": "O=c1c2cc3c(cc2ncn1Cc1cccc(-c2ccccc2)c1)OCO3",
    "group": 1.0
  },
  {
    "compound": "O=c1c2cc3c(cc2ncn1Cc1ccc(Br)cc1)OCO3",
    "group": 0.0
  },
  {
    "compound": "O=c1c2cc3c(cc2ncn1Cc1ccc(-c2ccccc2)cc1)OCCO3",
    "group": 1.0
  },
  {
    "compound": "Clc1ccc(Nc2nnc(Cc3ccncc3)c3ccccc23)cc1",
    "group": 1.0
  },
  {
    "compound": "O=C(Cn1cnc2cc3c(cc2c1=O)OCCO3)c1cccc(Br)c1",
    "group": 1.0
  },
  {
    "compound": "O=c1c2cc3c(cc2ncn1CC(O)c1cccc(Cl)c1)OCCO3 (centres undefined)",
    "group": 0.0
  },
  {
    "compound": "COc1cc2ncn(Cc3cccc(Br)c3)c(=O)c2cc1OC",
    "group": 0.0
  },
  {
    "compound": "O=C(Cn1cnc2cc3c(cc2c1=O)OCCO3)c1ccc(Br)cc1",
    "group": 1.0
  }
]
